System: TGW (Neuroblastoma);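 also: after 72 h of two-drug dosing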
PROTOCOL DESCRIPTION: Bliss excess, mean over the matrix (fraction); higher = more synergy
Label F if Bliss excess falls below -0.04; label T in every other case.

>>> classification("NC1(C(=O)N[C@@H](CCO)c2ccc(Cl)cc2)CCN(c2ncnc3[nH]ccc23)CC1 [Capivasertib] + COc1nnc2ccc(N3CCC(c4ccc(OCCN5CCN(C)C(=O)[C@H]5C)cc4)CC3)nn12 [AZD5153] (first compound max 10 µM, 7x7, partner max 1 µM)")
"T"
>>> classification("NC1(C(=O)N[C@@H](CCO)c2ccc(Cl)cc2)CCN(c2ncnc3[nH]ccc23)CC1 [Capivasertib] + CCN(CCO)CCCOc1ccc2c(Nc3cc(CC(=O)Nc4cccc(F)c4)[nH]n3)ncnc2c1 [AZD2811] (first compound max 10 µM, 7x7, partner max 1 µM)")
"F"
>>> classification("C[C@@H]1COCCN1c1cc(C2([S@](C)(=N)=O)CC2)nc(-c2ccnc3[nH]ccc23)n1 [AZD6738] + C1CC(C1)(C(=O)[O-])C(=O)[O-].N.N.[Pt+2] [Carboplatin] (first compound max 10 µM, 7x7, partner max 10 µM)")
"F"
>>> classification("COc1cccc(OCCCN)c1-c1cc(Nc2cnc(C#N)cn2)n[nH]1 [Prexasertib] + CCc1c2c(nc3ccc(O)cc13)-c1cc3c(c(=O)n1C2)COC(=O)[C@]3(O)CC [SN-38] (first compound max 1 µM, 7x7, partner max 0.3 µM)")
"T"
>>> classification("COc1nnc2ccc(N3CCC(c4ccc(OCCN5CCN(C)C(=O)[C@H]5C)cc4)CC3)nn12 [AZD5153] + CC1(C)CCC(CN2CCN(c3ccc(C(=O)NS(=O)(=O)c4ccc(NCC5CCOCC5)c([N+](=O)[O-])c4)c(Oc4cnc5[nH]ccc5c4)c3)CC2)=C(c2ccc(Cl)cc2)C1 [Venetoclax] (first compound max 1 µM, 7x7, partner max 1 µM)")
"T"
>>> classification("COc1cccc2c1C(=O)c1c(O)c3c(c(O)c1C2=O)C[C@@](O)(C(=O)CO)C[C@@H]3O[C@H]1C[C@H](N)[C@H](O)[C@H](C)O1 [Doxorubicin] + Cc1cc2ncnn2cc1Nc1ncc2c(n1)n(C1CCOCC1)c(=O)n2C [AZD7648] (first compound max 1 µM, 7x7, partner max 10 µM)")
"T"

Next molecule, please.
I'd appreciate it if you could say whether Cn1cnc2c(F)c(Nc3ccc(Br)cc3Cl)c(C(=O)NOCCO)cc21 [Selumetinib] + C=CCn1c(=O)c2cnc(Nc3ccc(N4CCN(C)CC4)cc3)nc2n1-c1cccc(C(C)(C)O)n1 [AZD1775] (first compound max 10 µM, partner max 1 µM) has Bliss excess at least equal to -0.04.
T

* * *

System: RF-48 (B-Cell Non-Hodgkin's Lymphoma)
PROTOCOL DESCRIPTION: combination Emax (second highest fraction inhibited in the dose matrix, 72 h); higher = more inhibition; extreme values may be limits of the assay
Each item that follows carries a reported combination Emax.
Number only, please.

Some solved entries appear below for comparison.
>>> numeric_value("CS(=O)(=O)CCNCc1ccc(-c2ccc3ncnc(Nc4ccc(OCc5cccc(F)c5)c(Cl)c4)c3c2)o1 [Lapatinib] + C[C@@H](Oc1cc(-c2cnn(C3CCNCC3)c2)cnc1N)c1c(Cl)ccc(F)c1Cl [Crizotinib] (first compound max 10 µM, 7x7, partner max 10 µM)")
0.477
>>> numeric_value("CC1(C)CCC(CN2CCN(c3ccc(C(=O)NS(=O)(=O)c4ccc(NCC5CCOCC5)c([N+](=O)[O-])c4)c(Oc4cnc5[nH]ccc5c4)c3)CC2)=C(c2ccc(Cl)cc2)C1 [Venetoclax] + C=CCn1c(=O)c2cnc(Nc3ccc(N4CCN(C)CC4)cc3)nc2n1-c1cccc(C(C)(C)O)n1 [AZD1775] (first compound max 1 µM, partner max 1 µM)")
0.667

Sure, the documented combination Emax for CC1(C)CCC(CN2CCN(c3ccc(C(=O)NS(=O)(=O)c4ccc(NCC5CCOCC5)c([N+](=O)[O-])c4)c(Oc4cnc5[nH]ccc5c4)c3)CC2)=C(c2ccc(Cl)cc2)C1 [Venetoclax] + CS(=O)(=O)CCNCc1ccc(-c2ccc3ncnc(Nc4ccc(OCc5cccc(F)c5)c(Cl)c4)c3c2)o1 [Lapatinib] (first compound max 1 µM, 7x7, partner max 10 µM) is 0.34
